SUBJECT_OF_TEST: Cytochrome P450 2C19 (Homo sapiens)
Sequence (P33261 whole entry): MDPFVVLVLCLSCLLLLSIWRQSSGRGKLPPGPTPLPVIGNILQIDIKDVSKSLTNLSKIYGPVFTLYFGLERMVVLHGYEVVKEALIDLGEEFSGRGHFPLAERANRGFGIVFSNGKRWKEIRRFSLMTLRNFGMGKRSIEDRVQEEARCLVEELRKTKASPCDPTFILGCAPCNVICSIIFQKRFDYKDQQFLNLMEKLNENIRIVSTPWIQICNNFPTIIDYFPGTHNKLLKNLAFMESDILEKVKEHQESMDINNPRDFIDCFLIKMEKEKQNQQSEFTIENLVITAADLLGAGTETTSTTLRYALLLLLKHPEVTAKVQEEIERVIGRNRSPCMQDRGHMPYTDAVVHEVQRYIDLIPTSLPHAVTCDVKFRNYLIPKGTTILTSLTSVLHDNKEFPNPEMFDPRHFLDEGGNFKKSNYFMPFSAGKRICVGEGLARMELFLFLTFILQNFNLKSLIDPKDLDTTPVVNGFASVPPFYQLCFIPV
pKi: −log10 of the molar value.

| QUERY_SMILES | SUBJECT_OF_TEST | pKi |
| --- | --- | --- |
| NNC(=O)c1ccncc1 | Cytochrome P450 2C19 (Homo sapiens) | 5.00 |

---

SUBJECT_OF_TEST: Cytochrome P450 1A2 (Rattus norvegicus, UniProt P04799)
Sequence (P04799 whole entry): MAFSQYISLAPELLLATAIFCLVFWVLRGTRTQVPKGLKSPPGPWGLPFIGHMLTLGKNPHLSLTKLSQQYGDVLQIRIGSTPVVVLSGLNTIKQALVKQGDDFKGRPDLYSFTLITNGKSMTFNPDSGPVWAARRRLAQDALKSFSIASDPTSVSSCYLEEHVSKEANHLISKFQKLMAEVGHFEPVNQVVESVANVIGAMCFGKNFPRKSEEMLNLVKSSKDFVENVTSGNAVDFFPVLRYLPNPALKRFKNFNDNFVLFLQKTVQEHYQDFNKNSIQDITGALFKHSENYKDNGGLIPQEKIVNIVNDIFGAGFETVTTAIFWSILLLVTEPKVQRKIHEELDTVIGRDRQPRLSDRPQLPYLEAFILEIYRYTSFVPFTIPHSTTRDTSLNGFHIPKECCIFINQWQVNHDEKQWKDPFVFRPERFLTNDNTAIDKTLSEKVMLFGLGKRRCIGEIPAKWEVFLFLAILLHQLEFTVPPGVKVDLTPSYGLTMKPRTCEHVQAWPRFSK
EXPERIMENT: Mechanism based inhibition of rat cytochrome P450 CYP1A2
Format: ADME
pKi: −log10 of the molar value.
RECORDED_ENDPOINT: pKi

| QUERY_SMILES | RECORDED_ENDPOINT | OBSERVED_MEASUREMENT |
| --- | --- | --- |
| CC#Cc1ccc2c(ccc3ccccc32)c1 | pKi | 7.52 |

---

SUBJECT_OF_TEST: CYP1A2 (Rattus norvegicus)
Sequence (P04799 whole entry): as above
EXPERIMENT: Mechanism based inhibition of rat cytochrome P450 CYP1A2 measured by zolmitriptan metabolism
Assay type: ADME
MEASUREMENT_CONTEXT: rat, probe zolmitriptan (metabolism)

| QUERY_SMILES | UNIT_TEXT | kinact |
| --- | --- | --- |
| COCCCC/C(=N\OCCN)c1ccc(C(F)(F)F)cc1 | s⁻¹ | 0.00267 |

---

SUBJECT_OF_TEST: CYP2B6 (Homo sapiens)
Sequence (P20813 whole entry): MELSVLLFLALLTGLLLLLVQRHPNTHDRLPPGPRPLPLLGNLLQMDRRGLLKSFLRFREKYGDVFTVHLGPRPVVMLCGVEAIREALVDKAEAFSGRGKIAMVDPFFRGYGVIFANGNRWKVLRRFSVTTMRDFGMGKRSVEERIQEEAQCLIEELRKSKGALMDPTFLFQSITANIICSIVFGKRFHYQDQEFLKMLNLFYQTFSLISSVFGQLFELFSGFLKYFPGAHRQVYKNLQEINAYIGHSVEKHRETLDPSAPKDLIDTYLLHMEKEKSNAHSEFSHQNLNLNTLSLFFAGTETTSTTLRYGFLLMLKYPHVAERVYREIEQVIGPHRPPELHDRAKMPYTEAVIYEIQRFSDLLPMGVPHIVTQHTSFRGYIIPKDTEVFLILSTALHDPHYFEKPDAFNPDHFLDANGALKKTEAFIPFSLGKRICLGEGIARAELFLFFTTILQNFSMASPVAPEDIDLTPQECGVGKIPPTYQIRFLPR
EXPERIMENT: Mechanism based inhibition of human cytochrome P450 2B6 using recombinant CYP2B6
MEASUREMENT_CONTEXT: human, recombinant CYP2B6

| QUERY_SMILES | SUBJECT_OF_TEST | UNIT_TEXT | kinact |
| --- | --- | --- | --- |
| COC(=O)[C@H](c1ccccc1Cl)N1CCc2sccc2C1 | CYP2B6 (Homo sapiens) | s⁻¹ | 0.0025 |

---

SUBJECT_OF_TEST: CYP2A6 (Homo sapiens, UniProt P11509)
Sequence (P11509 whole entry): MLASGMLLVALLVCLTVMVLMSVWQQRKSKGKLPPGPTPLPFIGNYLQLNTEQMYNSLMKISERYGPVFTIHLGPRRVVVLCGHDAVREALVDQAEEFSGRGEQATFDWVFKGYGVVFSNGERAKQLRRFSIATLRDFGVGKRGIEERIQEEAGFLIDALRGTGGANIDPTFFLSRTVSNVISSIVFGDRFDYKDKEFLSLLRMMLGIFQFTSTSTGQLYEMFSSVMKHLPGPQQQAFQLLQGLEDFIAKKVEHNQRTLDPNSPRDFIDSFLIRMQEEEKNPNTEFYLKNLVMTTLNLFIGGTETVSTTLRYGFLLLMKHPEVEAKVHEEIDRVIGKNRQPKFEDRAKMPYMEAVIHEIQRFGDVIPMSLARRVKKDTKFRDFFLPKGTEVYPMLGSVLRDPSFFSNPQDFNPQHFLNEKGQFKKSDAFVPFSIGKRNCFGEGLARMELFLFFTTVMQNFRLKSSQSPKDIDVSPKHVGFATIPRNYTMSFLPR
EXPERIMENT: Mechanism based inhibition of human cytochrome P450 2A6 measured by coumarin 7-hxdroxylation using purified P450
Format: ADME
MEASUREMENT_CONTEXT: human, purified CYP2A6, probe coumarin (7-hydroxylation)

| COMPOUND | kinact [s⁻¹] |
| --- | --- |
| Cc1coc2c1CCC(C)C2 (stereo unspecified) | 0.00417 |

---

SUBJECT_OF_TEST: UniProtKB P08684
Sequence (P08684 whole entry): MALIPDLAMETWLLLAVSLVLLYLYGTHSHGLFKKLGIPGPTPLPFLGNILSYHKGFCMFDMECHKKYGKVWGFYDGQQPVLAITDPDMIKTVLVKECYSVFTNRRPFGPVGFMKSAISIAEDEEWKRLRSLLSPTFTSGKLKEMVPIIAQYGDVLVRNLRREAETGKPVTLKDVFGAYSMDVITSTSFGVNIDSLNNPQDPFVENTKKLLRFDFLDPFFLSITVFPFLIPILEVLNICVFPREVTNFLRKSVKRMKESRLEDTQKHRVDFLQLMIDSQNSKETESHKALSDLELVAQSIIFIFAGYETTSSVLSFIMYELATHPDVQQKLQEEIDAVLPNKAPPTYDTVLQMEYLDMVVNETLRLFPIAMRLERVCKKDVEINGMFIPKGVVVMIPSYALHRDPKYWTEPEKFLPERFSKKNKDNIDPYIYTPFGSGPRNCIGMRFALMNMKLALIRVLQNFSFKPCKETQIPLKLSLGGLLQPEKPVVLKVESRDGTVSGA
EXPERIMENT: Mechanism based inhibition of human cytochrome P450 3A4 measured by testosterone 6-beta hydroxylation and erythromycin N-demethylation
Assay type: ADME
pKi: −log10 of the molar value.

| QUERY_SMILES | pKi |
| --- | --- |
| CC(C)=CCC/C(C)=C/COc1c2ccoc2cc2oc(=O)ccc12 | 5.11 |
